System: rat CYP3A1, gene 25642
Assay remarks: NVS_ADME_rCYP3A1: NovaScreen (NVS) CYP450-related Enzyme Activity (ADME) Assay for rat CYP3A1 (AID 2283126)
Description: NVS_ADME_rCYP3A1 is a biochemical, single-readout assay that uses extracted gene-proteins in a cell-free assay. Measurements were taken 0.5 hour after chemical dosing in a 96-well plate.NVS_ADME_rCYP3A1 is one of one assay component(s) measured or calculated from the NVS_ADME_rCYP3A1 assay. […] This assay endpoint, NVS_ADME_rCYP3A1, was analyzed in the positive analysis fitting direction relative to Acetonitrile as the negative control and baseline of activity. […]
The source made the active and inactive calls. Rule for the calls: active = hit-call score of the fitted dose curve at least 0.9, where 1 is the maximum; inconclusive = response in the unintended direction; inactive = score below 0.9.
// one of active, inactive, no free text

Some solved cases for reference:
FC(F)C(F)(F)OCC(Cn1cncn1)c1ccc(Cl)cc1Cl (stereo not drawn) :: active
CC(C1CC1)C(O)(Cn1cncn1)c1ccc(Cl)cc1 (stereo not drawn) :: active
CCOP(=S)(OCC)Oc1ccc2c(C)c(Cl)c(=O)oc2c1 :: active

From here, focus on the item given below.
Prompt: Write down the call the test reported for this molecule. Item: C[Si](Cn1cncn1)(c1ccc(F)cc1)c1ccc(F)cc1
Completion: active

* * *

Read-out: CYP2C9 (gene 1559)
Assay remarks: LTEA_HepaRG_CYP2C9: Life Technologies and Expression Analysis (LTEA) Assay for CYP2C9 using HepaRG (AID 2283484)
Setup conditions: mRNA level, 48 h; actives raise or lower the signal
The source made the active and inactive calls. How the source made its calls: active means hit-call score of the fitted dose curve at least 0.9, where 1 is the maximum; inactive means score below 0.9.
// one of active, inactive, no free text

Some solved cases for reference:
CCCCN(CC)c1c([N+](=O)[O-])cc(C(F)(F)F)cc1[N+](=O)[O-] :: inactive
CCOP(=S)(OCC)SCCSCC :: inactive

Prompt: Write down the call the test reported for this compound. Item: CCOP(=O)(SC(C)CC)N1CCSC1=O (stereo not given)
Completion: inactive

Prompt: Same read-out for CCC(=O)Nc1ccc(Cl)c(Cl)c1 ?
Completion: inactive

Prompt: Same read-out for CCOP(=S)(OCC)Oc1ccc([N+](=O)[O-])cc1 ?
Completion: inactive

Prompt: Same read-out for CNC(=O)ON=C(SC)C(=O)N(C)C ?
Completion: inactive

Prompt: Same read-out for CCCCSP(=O)(SCCCC)SCCCC ?
Completion: inactive

Prompt: Same read-out for CCOP(=S)(OCC)OC(Cl)C(Cl)(Cl)Cl (stereo not given) ?
Completion: inactive

* * *

Read-out: Glutathione S-transferase M3 (GSTM3), GSTM3 (gene 2947)
Assay remarks: LTEA_HepaRG_GSTM3: Life Technologies and Expression Analysis (LTEA) Assay for Glutathione S-transferase M3 (GSTM3) using HepaRG (AID 2283501)
Setup conditions: mRNA level, 48 h; actives raise or lower the signal
Activity calls are given as the source filed them. Rule for the calls: active = hit-call score of the fitted dose curve at least 0.9, where 1 is the maximum; inactive = score below 0.9.
// one of active, inactive, no free text

Some solved cases for reference:
C[Si](Cn1cncn1)(c1ccc(F)cc1)c1ccc(F)cc1 :: active
COP(=O)(OC)C(O)C(Cl)(Cl)Cl (stereo not drawn) :: inactive
CC1=NNC(=O)N(/N=C/c2cccnc2)C1 :: inactive
CC[C@H](C)[C@H]1O[C@]2(C=C[C@@H]1C)C[C@@H]1C[C@@H](C/C=C(\C)[C@@H](O[C@H]3C[C@H](OC)[C@@H](O[C@H]4C[C@H](OC)[C@@H](NC)[C@H](C)O4)[C@H](C)O3)[C@@H](C)/C=C/C=C3\CO[C@@H]4[C@H](O)C(C)=C[C@@H](C(=O)O1)[C@]34O)O2 :: inactive
CCOP(=S)(OCC)Oc1ccc([N+](=O)[O-])cc1 :: inactive

Prompt: Write down the call the test reported for this compound. Item: CN(C)C(=O)Nc1cccc(C(F)(F)F)c1
Completion: inactive

Prompt: Same read-out for CCOC(=O)CC(SP(=O)(OC)OC)C(=O)OCC (stereo not drawn) ?
Completion: inactive

Prompt: Same read-out for CCOP(=S)(Oc1cnc(C(C)(C)C)nc1)OC(C)C (stereo not drawn) ?
Completion: inactive

* * *

System name: human Adenosine A1 Receptor (AdoRA1), ADORA1 (gene 134)
Assay remarks: NVS_GPCR_hAdoRA1: NovaScreen (NVS) G Protein-Coupled Receptor Assay for human Adenosine A1 Receptor (AdoRA1) (AID 2283254)
Inconclusive results are not listed. The source made the active and inactive calls. The calls were made as follows: active = hit-call score of the fitted dose curve at least 0.9, where 1 is the maximum; inconclusive = response in the unintended direction; inactive = score below 0.9.
// one of active, inactive, no free text

CCOC(=O)CC(SP(=O)(OC)OC)C(=O)OCC (stereo not given) :: inactive

Prompt: Write down the call the test reported for this molecule. Item: COc1ccc(C(=CC(=O)N2CCOCC2)c2ccc(Cl)cc2)cc1OC
Completion: active

* * *

Tested on: frog Estrogen Receptor (ER2), gene 100174814
Assay remarks: ATG_frER2_XSP2: Attagene TRANS-FACTORIAL Multi-Species (XSP2) HepG2 Assay for frog Estrogen Receptor (ER2) (AID 2283828)
Results filed as inconclusive are left out. The source made the active and inactive calls. How the source made its calls: active means hit-call score of the fitted dose curve at least 0.9, where 1 is the maximum; inconclusive means response in the unintended direction; inactive means score below 0.9.
Measurement type: outcome

CCCOCC(=Nc1ccc(Cl)cc1C(F)(F)F)n1ccnc1 :: inactive
C#CCC1=C(C)C(OC(=O)C2C(C=C(C)C)C2(C)C)CC1=O (centres undefined) :: inactive
CCc1cccc(C)c1N(C(=O)CCl)C(C)COC (centres undefined) :: inactive
C#CC(C)(C)NC(=O)c1cc(Cl)cc(Cl)c1 :: inactive

* * *

Assay remarks: ATG_PBREM_CIS: Attagene CIS-FACTORIAL HepG2 Assay for human Phenobarbital-responsive Enhancer Module (PBREM) (AID 2282955)
Setup conditions: HepG2 PBREM cis-reporter, Attagene multiplexed transcription; actives raise or lower the signal
Calls of active or inactive are those of the source. The calls were made as follows: active = hit-call score of the fitted dose curve at least 0.9, where 1 is the maximum; inactive = score below 0.9.
Measurement type: AC50

Worked cases, AC50 given:
CC(Oc1cccc(Cl)c1)C(=O)O (stereo not given) :: inactive
CN(C)C(=O)Nc1cccc(C(F)(F)F)c1 :: inactive
CCCOCC(=Nc1ccc(Cl)cc1C(F)(F)F)n1ccnc1 :: inactive
CN(C)NC(=O)CCC(=O)O :: inactive

Required: AC50, one value per molecule below.
1. N#CSCSC#N
2. O=[N+]([O-])c1cc(C(F)(F)F)c(Cl)c([N+](=O)[O-])c1Nc1ncc(C(F)(F)F)cc1Cl
3. Nc1c(Cl)cc([N+](=O)[O-])cc1Cl

Completion:
inactive
inactive
inactive

Required: AC50, one value per molecule below.
1. CCCCOC(=O)c1ccccc1C(=O)O
2. CCOP(=S)(OCC)SCCSCC
3. CCc1cnc(C2=NC(C)(C(C)C)C(=O)N2)c(C(=O)O)c1 (stereo not given)

Completion:
inactive
30.5 µM (active)
inactive

* * *

Assay remarks: CEETOX_H295R_CORTISOL: CeeTox H295R High-throughput Steroidogenesis Assay for Cortisol (AID 2283438);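 note: cortisol secreted into medium quantified by LC-MS/MS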
Setup conditions: actives raise or lower the signal
The source made the active and inactive calls. Rule for the calls: active = hit-call score of the fitted dose curve at least 0.9, where 1 is the maximum; inactive = score below 0.9.
// one of t (active), f (inactive), no free text

Some solved cases for reference:
CCOC(=O)COc1cc(-c2nn(C)c(OC(F)F)c2Cl)c(F)cc1Cl :: f
CCOP(=O)(NC(C)C)Oc1ccc(SC)c(C)c1 (stereo not given) :: f
CCOP(=S)(OCC)Oc1ccc2c(C)c(Cl)c(=O)oc2c1 :: f

Prompt: Write down the call the test reported for this molecule. Item: CNC(=O)ON=C(C)SC
Completion: f

Prompt: Same read-out for Nc1nc(N)nc(NC2CC2)n1 ?
Completion: f

Prompt: Same read-out for CCCOCC(=Nc1ccc(Cl)cc1C(F)(F)F)n1ccnc1 ?
Completion: t

Prompt: Same read-out for CCNc1nc(Cl)nc(NC(C)(C)C#N)n1 ?
Completion: f

Prompt: Same read-out for CNC(=O)Oc1cccc2c1OC(C)(C)O2 ?
Completion: f

* * *

System name: rat Serotonin Transporter (SERT), Slc6a4 (gene 25553)
Assay remarks: NVS_TR_rSERT: NovaScreen (NVS) Transporter Assay for rat Serotonin Transporter (SERT) (AID 2283375)
Results filed as inconclusive are left out. Activity calls are given as the source filed them. The calls were made as follows: active = hit-call score of the fitted dose curve at least 0.9, where 1 is the maximum; inconclusive = response in the unintended direction; inactive = score below 0.9.
// one of active, inactive, no free text

CC(C)N(C(=O)SCC(Cl)=C(Cl)Cl)C(C)C :: inactive
Nc1c(Cl)cc([N+](=O)[O-])cc1Cl :: active
CCOP(=S)(OCC)Oc1ccc([N+](=O)[O-])cc1 :: active
COc1ccc(C(=CC(=O)N2CCOCC2)c2ccc(Cl)cc2)cc1OC :: inactive
CCCOCC(=Nc1ccc(Cl)cc1C(F)(F)F)n1ccnc1 :: inactive

Prompt: Write down the call the test reported for this compound. Item: CC(C)=CC1C(C(=O)OCN2C(=O)C3=C(CCCC3)C2=O)C1(C)C (stereo unspecified)
Completion: inactive

* * *

System name: Cellular tumor antigen p53 (Homo sapiens) (UniProt P04637)
Sequence (P04637 whole entry, looked up): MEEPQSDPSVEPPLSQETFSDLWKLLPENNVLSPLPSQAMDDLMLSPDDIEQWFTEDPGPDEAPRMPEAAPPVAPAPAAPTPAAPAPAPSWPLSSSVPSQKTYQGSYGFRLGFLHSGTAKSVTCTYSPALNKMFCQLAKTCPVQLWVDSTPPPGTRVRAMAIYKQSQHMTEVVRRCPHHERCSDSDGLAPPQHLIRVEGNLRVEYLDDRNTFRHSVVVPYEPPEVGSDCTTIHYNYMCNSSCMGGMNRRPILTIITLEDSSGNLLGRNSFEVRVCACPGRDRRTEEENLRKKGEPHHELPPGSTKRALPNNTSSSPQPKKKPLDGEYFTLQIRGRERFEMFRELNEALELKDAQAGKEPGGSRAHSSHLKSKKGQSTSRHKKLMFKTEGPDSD
Assay remarks: TOX21_p53_BLA_p3_ratio: Tox21 HCT-116 p53 Agonism Beta-lactamase Assay, Ratio, Phase 3 (AID 2283596)
Records with an inconclusive call do not appear. Calls of active or inactive are those of the source. The calls were made as follows: active = hit-call score of the fitted dose curve at least 0.9, where 1 is the maximum; inconclusive = response in the unintended direction; inactive = score below 0.9.
// one of 1.0 for active, 0.0 for inactive, no free text

Some solved cases for reference:
CN(C)C(=O)Nc1cccc(C(F)(F)F)c1 :: 0.0
Nc1nc(N)nc(NC2CC2)n1 :: 0.0
CN(C)NC(=O)CCC(=O)O :: 0.0
CC1(C(=O)Nc2ccc(O)c(Cl)c2Cl)CCCCC1 :: 0.0
CCCOCC(=Nc1ccc(Cl)cc1C(F)(F)F)n1ccnc1 :: 1.0

Prompt: Write down the call the test reported for this compound. Item: COP(=O)(OC)C(O)C(Cl)(Cl)Cl (stereo not drawn)
Completion: 0.0

Prompt: Same read-out for COP(=O)(OC)SCn1c(=O)oc2cc(Cl)cnc21 ?
Completion: 1.0

Prompt: Same read-out for COc1cc(OC)nc(Sc2cccc(Cl)c2C(=O)O)n1 ?
Completion: 0.0

Prompt: Same read-out for Cc1cc(C2CC2)nc(Nc2ccccc2)n1 ?
Completion: 0.0

Prompt: Same read-out for S=C1NCCN1 ?
Completion: 0.0
